- Test system: c-Src
- Protocol Description: phosphorylation enrichment, bacterial display (enrichment ratio); higher = better substrate or ligand; peptides without Tyr show the background;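 further: 11-residue human phosphosite peptides and single-mutation variants displayed on the E. coli surface, counted by deep sequencing, each peptide's frequency after selection divided by its frequency in the unselected input library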;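 further: frequency after pTyr selection over input frequency; kinase dosed for 20-30% of maximal phosphorylation in three min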
Outcome Measure: phosphorylation enrichment
One number for each entry.

- Sequence String: "QCQLKYSETPF [SIX6OS1_Y129_Y125C]"
  Outcome Measure: "phosphorylation enrichment"
  Numeric Readout: 0.717
- Sequence String: "CPYNLYAEQLS [HGD_Y40]"
  Outcome Measure: "phosphorylation enrichment"
  Numeric Readout: 6.33
- Sequence String: "FADIAYSFRHG [PAH_Y166_N167S_YF]"
  Outcome Measure: "phosphorylation enrichment"
  Numeric Readout: 0.64
- Sequence String: "EEGRVYVYHLS [ITGAE_Y549_R552H]"
  Outcome Measure: "phosphorylation enrichment"
  Numeric Readout: 0.828
- Sequence String: "ESLRRYLENGK [HLA-B_Y195_W191S]"
  Outcome Measure: "phosphorylation enrichment"
  Numeric Readout: 0.34
- Sequence String: "TVSQPYSFIEF [SEC22B_Y110_R108Q]"
  Outcome Measure: "phosphorylation enrichment"
  Numeric Readout: 5.66
- Sequence String: "CSKRFYQLTKL [AR_Y858_R855K]"
  Outcome Measure: "phosphorylation enrichment"
  Numeric Readout: 0.449
- Sequence String: "GREEFYVHYVG [KAT8_Y90]"
  Outcome Measure: "phosphorylation enrichment"
  Numeric Readout: 0.486

Can you give me phosphorylation enrichment for all of these, one by one?
1. SFPSTYRFERG [INPPL1_Y661_P659S_YF]
2. LKRIAYFLCLL [LGI1_Y21]
3. RELSWYRGQRP [HESX1_Y106_R109Q]
4. DDYDLYGGEKF [PTPN11_Y66_Y62D]

# output
1. 0.569
2. 0.484
3. 0.401
4. 2.07

Can you give me phosphorylation enrichment for all of these, one by one?
1. AERKLYSGAQT [ZAP70_Y178]
2. CEAIEYLESKQ [BTK_Y511_M509I]

# output
0.383
0.549

----------
Assignment: determine reported phosphorylation enrichment for the given sequences.
- Study System: Fyn (UniProt P06241)
- Sequence (P06241 whole entry, looked up): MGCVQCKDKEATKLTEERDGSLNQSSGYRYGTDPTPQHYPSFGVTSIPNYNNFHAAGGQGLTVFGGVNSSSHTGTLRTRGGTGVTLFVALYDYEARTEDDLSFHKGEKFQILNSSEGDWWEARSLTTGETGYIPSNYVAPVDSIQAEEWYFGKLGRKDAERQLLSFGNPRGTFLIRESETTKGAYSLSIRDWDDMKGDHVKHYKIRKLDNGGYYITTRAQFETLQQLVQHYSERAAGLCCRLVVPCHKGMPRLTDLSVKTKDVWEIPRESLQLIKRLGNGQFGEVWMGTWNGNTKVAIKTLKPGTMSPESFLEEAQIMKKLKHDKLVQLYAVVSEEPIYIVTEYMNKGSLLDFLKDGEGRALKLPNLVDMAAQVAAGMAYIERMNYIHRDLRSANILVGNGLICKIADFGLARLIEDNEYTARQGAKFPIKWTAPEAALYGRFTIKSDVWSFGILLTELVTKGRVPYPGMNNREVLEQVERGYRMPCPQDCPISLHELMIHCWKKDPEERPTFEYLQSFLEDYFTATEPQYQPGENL
- Protocol Description: phosphorylation enrichment, bacterial display (enrichment ratio); higher = better substrate or ligand; peptides without Tyr show the background
Numbers only.

- Sequence String: "DCAAIYGNEPE [AKR1A1_Y50]"
  Study System: "Fyn (UniProt P06241)"
  phosphorylation enrichment: 1.02
- Sequence String: "FSLIHYAGIVD [MYH7_Y582]"
  Study System: "Fyn (UniProt P06241)"
  phosphorylation enrichment: 0.408
- Sequence String: "SGASGYSATST [CERT1_Y143]"
  Study System: "Fyn (UniProt P06241)"
  phosphorylation enrichment: 0.491
- Sequence String: "PYSNSYENSLI [EPOR_Y489_P488S]"
  Study System: "Fyn (UniProt P06241)"
  phosphorylation enrichment: 0.699
- Sequence String: "RARPPYTVAAD [ANKZF1_Y572]"
  Study System: "Fyn (UniProt P06241)"
  phosphorylation enrichment: 0.35

Can you give me phosphorylation enrichment for all of these, one by one?
1. QEGPEYWDQQT [HLA-A_Y83_E87Q]
2. PSAELYSYALP [PDGFRB_Y716_N718Y]

# output
1. 0.741
2. 6.1
